Test: Pharmacokinetics in mice (plasma exposure after oral administration)
Format: in vivo
Settings: mouse, ICR mice, oral (i.g.) 3 mg/kg, read-out: After oral administration of 3 mg/kg, mouse plasma exposure AUCinf
Measured Endpoint: AUC(0-inf)

Examples with answers:
[[record]]
compound = "CC(O)c1ccc(Oc2ccc(C(C)(C)c3ccc(O[C@H]4C[C@H](Nc5ccc6c(c5)C(=O)N(C5CCC(=O)NC5=O)C6=O)C4)cc3)cc2)nn1 (some centres unmarked)"
measured_result = "5000 to 30000 ng·h/mL"

[[record]]
compound = "CC(C)(c1ccc(OCc2ccnc(-n3nccn3)n2)cc1)c1ccc(O[C@H]2C[C@@H](Nc3ccc4c(c3)C(=O)N(C3CCC(=O)NC3=O)C4=O)C2)cc1 (some centres unmarked)"
measured_result = "5000 to 30000 ng·h/mL"

[[record]]
compound = "O=C1CCC(N2C(=O)c3ccc(N[C@H]4C[C@@H](Oc5ccc(C6(c7ccc(OCc8ccnc(N9CC%10(COC%10)C9)n8)cc7)CCC6)cc5)C4)cc3C2=O)C(=O)N1 (some centres unmarked)"
measured_result = "1000 to 5000 ng·h/mL"


Ask: Name the recorded AUC(0-inf) of the compound listed here: Cc1nc(-c2ncc(Oc3ccc(C(C)c4ccc(O[C@H]5C[C@H](Nc6ccc7c(c6)C(=O)N(C6CCC(=O)NC6=O)C7=O)C5)cc4)cc3)cn2)no1 (some centres unmarked)
Reply: 5000 to 30000 ng·h/mL

Ask: Output AUC(0-inf) of Cc1nc(-c2ccc(Oc3ccc(C4(c5ccc(O[C@H]6C[C@H](Nc7ccc8c(c7)C(=O)N(C7CCC(=O)NC7=O)C8=O)C6)cc5)CCCC4)cc3)nn2)no1 (some centres unmarked)
Reply: 1000 to 5000 ng·h/mL

---

Biological target: androgen receptor (AR) splicing variant AR-v7 (Homo sapiens, UniProt P10275)
Construct: The degradation activity of compounds on AR-v7 in 22RV1 cells; host or cells: 22RV1 cells
Sequence (P10275 1-644 isoform P10275-3): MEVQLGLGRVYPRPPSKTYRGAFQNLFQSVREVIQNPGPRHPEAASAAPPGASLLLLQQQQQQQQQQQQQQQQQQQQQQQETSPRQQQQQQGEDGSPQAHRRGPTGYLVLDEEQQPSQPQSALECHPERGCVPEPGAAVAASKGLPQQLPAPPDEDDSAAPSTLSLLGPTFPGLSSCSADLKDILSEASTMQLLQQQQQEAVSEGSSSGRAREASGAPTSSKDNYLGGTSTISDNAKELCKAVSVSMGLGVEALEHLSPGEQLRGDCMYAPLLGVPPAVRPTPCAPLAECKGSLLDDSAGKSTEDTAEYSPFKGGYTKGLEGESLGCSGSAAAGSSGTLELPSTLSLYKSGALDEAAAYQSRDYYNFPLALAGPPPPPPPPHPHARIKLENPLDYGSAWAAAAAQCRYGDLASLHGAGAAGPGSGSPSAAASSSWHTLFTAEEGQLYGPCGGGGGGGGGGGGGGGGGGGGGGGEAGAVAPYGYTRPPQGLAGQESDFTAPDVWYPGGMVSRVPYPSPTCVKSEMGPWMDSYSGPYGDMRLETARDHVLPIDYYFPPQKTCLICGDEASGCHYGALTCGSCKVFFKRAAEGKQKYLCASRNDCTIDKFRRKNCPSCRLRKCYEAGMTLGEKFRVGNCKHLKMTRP
Assay: Degradation activity on androgen receptor splicing variant AR-v7 in 22RV1 cells (ELISA)
Assay type: cell-based
Conditions: AR-v7 degradation in 22RV1 cells, 48 h, class symbols
Measured Endpoint: DC50

# annotated cases, reported DC50 shown
[[record]]
compound = "Cc1nnc(-c2cccc(COc3ccc(C(C)(C)c4ccc(O[C@H]5C[C@H](Nc6ccc7c(c6)C(=O)N(C6CCC(=O)NC6=O)C7=O)C5)cc4)cc3)n2)o1 (stereo partly drawn)"
measured_result = "< 10 nM"

[[record]]
compound = "CC(C)(c1ccc(OCc2ccnc(NS(C)(=O)=O)n2)cc1)c1ccc(OCC2CN(c3cccc4c3C(=O)N(C3CCC(=O)NC3=O)C4=O)C2)cc1 (stereo not drawn)"
measured_result = "1000 to 5000 nM"


Next item in the queue.
Ask: Report DC50 from androgen receptor (AR) splicing variant AR-v7 (Homo sapiens, UniProt P10275) testing of Cc1noc(-c2nccc(COc3ccc(C(C)(C)c4ccc(O[C@H]5C[C@@H](Nc6ccc7c(c6)C(=O)N(C6CCC(=O)NC6=O)C7=O)C5)cc4)cc3)n2)n1 (stereo partly drawn)
Reply: < 10 nM

---

Assay: Pharmacokinetics in mice (plasma exposure after oral administration)
Format: in vivo
Details: mouse, ICR mice, oral (i.g.) 3 mg/kg, read-out: After oral administration of 3 mg/kg, mouse plasma exposure AUCinf
Parameter: AUC(0-inf). Scope: all listed entries.

Recorded results for 5 molecules are shown here.
[[record]]
molecule = "CC(C)(c1ccc(Oc2ccc(C#N)nn2)cc1)c1ccc(O[C@H]2C[C@H](Nc3ccc4c(c3)C(=O)N(C3CCC(=O)NC3=O)C4=O)C2)cc1 (some centres unmarked)"
measured_result = "100 to 1000 ng·h/mL"

[[record]]
molecule = "CC(C)(c1ccc(OCc2ccnc(-n3nccn3)n2)cc1)c1ccc(O[C@H]2C[C@H](Nc3ccc4c(c3)C(=O)N(C3CCC(=O)NC3=O)C4=O)C2)cc1 (some centres unmarked)"
measured_result = "5000 to 30000 ng·h/mL"

[[record]]
molecule = "CC(C)(c1ccc(Oc2ccnc(N3CC4(COC4)C3)n2)cc1)c1ccc(OC2CC(Nc3ccc4c(c3)C(=O)N(C3CCC(=O)NC3=O)C4=O)C2)cc1 (centres unmarked)"
measured_result = "1000 to 5000 ng·h/mL"

[[record]]
molecule = "CC(C)(c1ccc(OCc2ccnc(O[C@@H]3CCNC3)n2)cc1)c1ccc(O[C@H]2C[C@@H](Nc3ccc4c(c3)C(=O)N(C3CCC(=O)NC3=O)C4=O)C2)cc1 (some centres unmarked)"
measured_result = "100 to 1000 ng·h/mL"

[[record]]
molecule = "CC(C)(c1ccc(OCc2ccnc(NCC3CNC3)n2)cc1)c1ccc(O[C@H]2C[C@@H](Nc3ccc4c(c3)C(=O)N(C3CCC(=O)NC3=O)C4=O)C2)cc1 (some centres unmarked)"
measured_result = "100 to 1000 ng·h/mL"


Field: next molecule
Ask: Assign AUC(0-inf) to the following record: CC(C)(c1ccc(OCc2ccnc(N3CC4(COC4)C3)n2)cc1)c1ccc(O[C@H]2C[C@@H](Nc3cc4c(cc3F)C(=O)N(C3CCC(=O)NC3=O)C4=O)C2)cc1 (some centres unmarked)
Reply: 1000 to 5000 ng·h/mL

---

Target: androgen receptor (AR) splicing variant AR-v7 (Homo sapiens, UniProt P10275)
Construct: The degradation activity of compounds on AR-v7 in 22RV1 cells; host or cells: 22RV1 cells
Test: Degradation activity on androgen receptor splicing variant AR-v7 in 22RV1 cells (ELISA)
Assay type: cell-based
Settings: AR-v7 degradation in 22RV1 cells, 48 h, class symbols
Measured Endpoint: DC50

[[record]]
compound = "CC(C)(c1ccc(Oc2ncc(I)cn2)cc1)c1ccc(O[C@H]2C[C@@H](Nc3ccc4c(c3)C(=O)N(C3CCC(=O)NC3=O)C4=O)C2)cc1 (stereo partly drawn)"
measured_result = "11 to 100 nM"

[[record]]
compound = "CC(C)(c1ccc(OCc2ccnc(N3CC4(COC4)C3)n2)cc1)c1ccc(C(=O)N2CC(Nc3ccc4c(c3)C(=O)N(C3CCC(=O)NC3=O)C4=O)C2)cc1 (stereo not drawn)"
measured_result = "11 to 100 nM"


We now examine a further compound.
Ask: Would you please give the reported DC50 of CC(C)(c1ccc(O[C@H]2C[C@H](Nc3ccc4c(c3)C(=O)N(C3CCC(=O)NC3=O)C4=O)C2)cc1)c1ccc(N2CCc3cnc(N4CC5(COC5)C4)nc3C2)cc1 (stereo partly drawn) with androgen receptor (AR) splicing variant AR-v7 (Homo sapiens, UniProt P10275)?
Reply: < 10 nM

---

Assay: Pharmacokinetics in mice (plasma exposure after oral administration)
Format: in vivo
Settings: mouse, ICR mice, oral (i.g.) 3 mg/kg, read-out: After oral administration of 3 mg/kg, mouse plasma exposure AUCinf
Measured Endpoint: AUC(0-inf)

Known results for molecules:
[[record]]
molecule = "Cc1noc(-c2nccc(Oc3ccc(C(C)(C)c4ccc(O[C@H]5C[C@H](Nc6ccc7c(c6)C(=O)N(C6CCC(=O)NC6=O)C7=O)C5)cc4)cc3)n2)n1 (stereo partly drawn) [Example 426]"
measured_endpoint = "AUC(0-inf)"
measured_result = "1000 to 5000 ng·h/mL"

[[record]]
molecule = "CC(C)(c1ccc(Oc2ncc(-n3nccn3)cn2)cc1)c1ccc(O[C@H]2C[C@H](Nc3ccc4c(c3)C(=O)N(C3CCC(=O)NC3=O)C4=O)C2)cc1 (stereo partly drawn) [Example 321]"
measured_endpoint = "AUC(0-inf)"
measured_result = "5000 to 30000 ng·h/mL"


Now for the molecule whose AUC(0-inf) we want.
Ask: Look up and report measured AUC(0-inf) for this entry: O=C1CCC(N2C(=O)c3ccc(N[C@H]4C[C@H](Oc5ccc(Cc6ccc(Oc7cnc(-n8ccnn8)nc7)cc6)cc5)C4)cc3C2=O)C(=O)N1 (stereo partly drawn) [Example 521]
Reply: 5000 to 30000 ng·h/mL

---

The entries below are paired with their reported DC50.
Target: androgen receptor (AR) splicing variant AR-v7 (Homo sapiens)
Construct: The degradation activity of compounds on AR-v7 in 22RV1 cells; host or cells: 22RV1 cells
Assay: Degradation activity on androgen receptor splicing variant AR-v7 in 22RV1 cells (ELISA)
Type: cell-based
Conditions: AR-v7 degradation in 22RV1 cells, 48 h, class symbols

The examples below pair each entry with its known result.
[[record]]
compound = "CN1CCN(c2ncc3c(n2)CN(c2ccc(C(C)(C)c4ccc(O[C@H]5C[C@H](Nc6ccc7c(c6)C(=O)N(C6CCC(=O)NC6=O)C7=O)C5)cc4)cc2)CC3)CC1 (stereo partly shown) [Example 192]"
measured_endpoint = "DC50"
measured_result = "11 to 100 nM"

[[record]]
compound = "CC(C)(c1ccc(Oc2cccnc2)cc1)c1ccc(O[C@H]2C[C@H](Nc3ccc4c(c3)C(=O)N(C3CCC(=O)NC3=O)C4=O)C2)cc1 (stereo partly shown) [Example 547]"
measured_endpoint = "DC50"
measured_result = "< 10 nM"

[[record]]
compound = "CC(C)(c1ccc(OCc2ccnc(OC3CN(C4CC4)C3)n2)cc1)c1ccc(O[C@H]2C[C@@H](Nc3ccc4c(c3)C(=O)N(C3CCC(=O)NC3=O)C4=O)C2)cc1 (stereo partly shown) [Example 467]"
measured_endpoint = "DC50"
measured_result = "11 to 100 nM"

[[record]]
compound = "CCC(CC)(c1ccc(Oc2cnc(C(C)=O)cn2)cc1)c1ccc(O[C@H]2C[C@@H](Nc3ccc4c(c3)C(=O)N(C3CCC(=O)NC3=O)C4=O)C2)cc1 (stereo partly shown) [Example 296]"
measured_endpoint = "DC50"
measured_result = "< 10 nM"

[[record]]
compound = "CC(=O)c1nccc(COc2ccc(C(C)(C)c3ccc(O[C@H]4C[C@@H](Nc5ccc6c(c5)C(=O)N(C5CCC(=O)NC5=O)C6=O)C4)cc3)cc2)n1 (stereo partly shown) [Example 491]"
measured_endpoint = "DC50"
measured_result = "< 10 nM"

[[record]]
compound = "C=CC(c1ccc(OCc2ccnc(N3CC4(COC4)C3)n2)cc1)c1ccc(O[C@H]2C[C@H](Nc3ccc4c(c3)C(=O)N(C3CCC(=O)NC3=O)C4=O)C2)cc1 (stereo partly shown) [Example 367]"
measured_endpoint = "DC50"
measured_result = "< 10 nM"

[[record]]
compound = "CNc1nccc(COc2ccc(C(C)(C)c3ccc(OC4CC(Nc5ccc6c(c5)C(=O)N(C5CCC(=O)NC5=O)C6=O)C4)cc3)cc2)n1 (stereo not shown) [Example 392]"
measured_endpoint = "DC50"
measured_result = "11 to 100 nM"

[[record]]
compound = "CC(C)(c1ccc(Oc2cnc(C(N)=O)nc2)cc1)c1ccc(O[C@H]2C[C@H](Nc3ccc4c(c3)C(=O)N(C3CCC(=O)NC3=O)C4=O)C2)cc1 (stereo partly shown) [Example 265]"
measured_endpoint = "DC50"
measured_result = "< 10 nM"


Please turn your attention to the following entry.
Ask: Complete the entry with DC50 for CC(C)(c1ccc(OCCCOc2ccc3c(c2)C(=O)N(C2CCC(=O)NC2=O)C3=O)cc1)c1ccc(OCc2ccnc(N3CC4(COC4)C3)n2)cc1 (stereo not shown) [Example 113]
Reply: 1000 to 5000 nM
